src = patent US9902709B2

- assay.target: VEGFR2 (Homo sapiens (Human), UniProt P35968)
- Sequence (P35968 20-1356): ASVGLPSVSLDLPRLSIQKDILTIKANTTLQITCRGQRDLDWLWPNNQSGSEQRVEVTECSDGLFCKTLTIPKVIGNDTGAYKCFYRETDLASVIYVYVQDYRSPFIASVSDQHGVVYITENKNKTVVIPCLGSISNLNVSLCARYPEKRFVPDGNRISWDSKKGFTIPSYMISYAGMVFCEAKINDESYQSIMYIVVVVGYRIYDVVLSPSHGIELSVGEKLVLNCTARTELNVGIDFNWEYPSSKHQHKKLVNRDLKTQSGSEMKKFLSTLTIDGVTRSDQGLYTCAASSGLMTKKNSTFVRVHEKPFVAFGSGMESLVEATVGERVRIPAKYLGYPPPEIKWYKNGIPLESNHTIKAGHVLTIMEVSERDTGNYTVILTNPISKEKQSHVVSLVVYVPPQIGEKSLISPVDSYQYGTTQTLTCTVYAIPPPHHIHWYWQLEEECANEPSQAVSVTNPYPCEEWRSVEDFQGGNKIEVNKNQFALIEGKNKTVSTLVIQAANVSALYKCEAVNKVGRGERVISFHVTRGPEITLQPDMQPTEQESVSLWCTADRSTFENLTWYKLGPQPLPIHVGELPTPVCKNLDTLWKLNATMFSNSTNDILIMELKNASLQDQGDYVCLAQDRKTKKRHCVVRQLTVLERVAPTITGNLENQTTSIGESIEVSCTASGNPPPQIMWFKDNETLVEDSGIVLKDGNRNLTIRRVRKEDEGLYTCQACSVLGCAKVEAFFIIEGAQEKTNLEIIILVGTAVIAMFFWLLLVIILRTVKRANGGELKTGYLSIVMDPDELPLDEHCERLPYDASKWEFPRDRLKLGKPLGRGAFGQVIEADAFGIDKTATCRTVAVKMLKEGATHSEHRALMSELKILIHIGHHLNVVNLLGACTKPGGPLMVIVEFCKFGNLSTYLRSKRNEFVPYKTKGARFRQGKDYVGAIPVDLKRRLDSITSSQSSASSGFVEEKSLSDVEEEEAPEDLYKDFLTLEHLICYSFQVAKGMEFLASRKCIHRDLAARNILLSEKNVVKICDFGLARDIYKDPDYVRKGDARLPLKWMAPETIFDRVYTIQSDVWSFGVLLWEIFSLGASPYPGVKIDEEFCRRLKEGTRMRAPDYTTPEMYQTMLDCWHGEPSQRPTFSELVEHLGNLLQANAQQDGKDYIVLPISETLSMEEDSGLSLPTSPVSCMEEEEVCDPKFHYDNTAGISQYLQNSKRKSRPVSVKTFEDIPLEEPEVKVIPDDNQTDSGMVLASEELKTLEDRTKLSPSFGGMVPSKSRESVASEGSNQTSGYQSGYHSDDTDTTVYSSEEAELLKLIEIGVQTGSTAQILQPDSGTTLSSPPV
- assay.comment: Inhibitory activity of VEGFR2 kinase (HTRF KinEASE-TK kit)
- Format: biochemical
- assay.conditions: VEGFR2 kinase
experimental.endpoint: inhibitory activity as fold of that of Sorafenib

>>> df
                                item_smiles  test_result
0  Cn1cc(-c2nccc(Oc3ccc(NC(=O)Nc4ccc(Cl)c(C(F)(F)F)c4)cc3)c2F)cn1    3.13 fold
1  Cn1cc(-c2nccc(Oc3ccc(NC(=O)Nc4ccc(Cl)c(C(F)(F)F)c4)cc3)c2Cl)cn1    1.61 fold
2  Cn1cc(-c2nccc(Oc3ccc(NC(=O)Nc4ccc(Cl)c(C(F)(F)F)c4)c(F)c3)c2Cl)cn1     1.5 fold
3  Cn1cc(-c2nccc(Oc3ccc(NC(=O)Nc4ccc(Cl)c(C(F)(F)F)c4)cc3)c2C#N)cn1     1.3 fold

----------
- assay.target: VEGFR2 (Homo sapiens (Human))
- assay.comment: Inhibitory activity of VEGFR2 kinase (HTRF KinEASE-TK kit)
- Type: biochemical
- assay.conditions: VEGFR2 kinase, ratio of IC50
experimental.endpoint: IC50 value as fold of that of Sorafenib (free base) (fold)

                                item_smiles                   assay_target  test_result
0  Cn1cc(-c2nccc(Oc3ccc(NC(=O)Nc4ccc(Cl)c(C(F)(F)F)c4)cc3)c2C#N)cn1  VEGFR2 (Homo sapiens (Human))         0.75
1  Cn1cc(-c2nccc(Oc3ccc(NC(=O)Nc4ccc(Cl)c(C(F)(F)F)c4)cc3)c2Cl)cn1  VEGFR2 (Homo sapiens (Human))         0.62
2  Cn1cc(-c2nccc(Oc3ccc(NC(=O)Nc4ccc(Cl)c(C(F)(F)F)c4)c(F)c3)c2Cl)cn1  VEGFR2 (Homo sapiens (Human))          2.5
3  Cn1cc(-c2nccc(Oc3ccc(NC(=O)Nc4ccc(Cl)c(C(F)(F)F)c4)cc3)c2F)cn1  VEGFR2 (Homo sapiens (Human))         0.32

----------
- assay.comment: Pharmacokinetics in mice
- Type: in vivo
- assay.conditions: female; CD-1 mouse, PO 5 mg/kg, plasma, average of three mice; read-out: Cmax (peak concentration)
Measured Cmax of individual entries
experimental.endpoint: Cmax (ng/mL)

                                   compound    uom  test_result
0  Cn1cc(-c2nccc(Oc3ccc(NC(=O)Nc4ccc(Cl)c(C(F)(F)F)c4)cc3)c2F)cn1 [Example 1]  ng/mL         1910
1  Cn1cc(-c2nccc(Oc3ccc(NC(=O)Nc4ccc(Cl)c(C(F)(F)F)c4)cc3)c2Cl)cn1 [Example 2]  ng/mL         3010

----------
- assay.target: VEGFR2 (Homo sapiens (Human))
- assay.comment: Inhibitory activity of VEGFR2 kinase (HTRF KinEASE-TK kit)
- Type: biochemical
- assay.conditions: VEGFR2 kinase, ratio of IC50
Measured IC50 value as fold of that of Comparative compound 2 of individual entries
experimental.endpoint: IC50 value as fold of that of Comparative compound 2 (fold)

>>> print(df.to_string())
                                   molecule  test_result
0  Cn1cc(-c2nccc(Oc3ccc(NC(=O)Nc4ccc(Cl)c(C(F)(F)F)c4)cc3)c2F)cn1 [Example 1]         0.15
1  Cn1cc(-c2nccc(Oc3ccc(NC(=O)Nc4ccc(Cl)c(C(F)(F)F)c4)cc3)c2C#N)cn1 [Example 4]         0.36
2  Cn1cc(-c2nccc(Oc3ccc(NC(=O)Nc4ccc(Cl)c(C(F)(F)F)c4)cc3)c2Cl)cn1 [Example 2]         0.34

----------
- assay.comment: Pharmacokinetics in mice
- Format: in vivo
- assay.conditions: female, plasma; CD-1 mouse, PO 5 mg/kg vs IV 1 mg/kg; read-out: F (oral bioavailability)
- Experimental: Administration route: intravenous injection (IV); per os (PO). Fasting condition: free access to water, no fasting. The mice were weighed before administration, and the administration volume was calculated based on their body weights (IV group: 4 mL/kg; PO group: 10 mL/kg). Administration route and dose: Intravenous (IV) group: 1 mg/kg; Oral (PO) group: 5 mg/kg. […] Pharmacokinetic parameters were estimated according to non-compartment model (calculated by WinNonlin software): […]
experimental.endpoint: bioavailability (%)

>>> df
                                   compound  uom  test_result
0  Cn1cc(-c2nccc(Oc3ccc(NC(=O)Nc4ccc(Cl)c(C(F)(F)F)c4)cc3)c2Cl)cn1 [Example 2]    %         82.9
1  Cn1cc(-c2nccc(Oc3ccc(NC(=O)Nc4ccc(Cl)c(C(F)(F)F)c4)cc3)c2F)cn1 [Example 1]    %         90.3
2  CNC(=O)c1cc(Oc2ccc(NC(=O)Nc3ccc(Cl)c(C(F)(F)F)c3)cc2)ccn1 [Comparative example 1, Sorafenib, reference compound]    %         78.6

----------
- Test system: SK-OV-3 human ovarian cancer cell strain
- assay.comment: In vitro anti-proliferation of tumor cells (CCK-8), SK-OV-3
- Assay type: cell-based
- assay.conditions: SK-OV-3, 72 hours
experimental.endpoint: IC50 (µM)

>>> df
                                   compound                              assay_target  experimental_endpoint  test_result
0  CNC(=O)c1cc(Oc2ccc(NC(=O)Nc3ccc(Cl)c(C(F)(F)F)c3)cc2)ccn1 [Comparative example 1, Sorafenib, reference compound]  SK-OV-3 human ovarian cancer cell strain                   IC50         17.9
1  Cn1cc(-c2nccc(Oc3ccc(NC(=O)Nc4ccc(Cl)c(C(F)(F)F)c4)cc3)c2F)cn1  SK-OV-3 human ovarian cancer cell strain                   IC50         7.14
2  Cn1cc(-c2nccc(Oc3ccc(NC(=O)Nc4ccc(Cl)c(C(F)(F)F)c4)cc3)c2Cl)cn1  SK-OV-3 human ovarian cancer cell strain                   IC50         5.76

----------
Measured AUC(0-t) of individual entries
- assay.comment: Pharmacokinetics in mice
- Assay type: in vivo
- assay.conditions: female; CD-1 mouse, PO 5 mg/kg, plasma, average of three mice; read-out: AUClast (area under the curve)
experimental.endpoint: AUC(0-t)

>>> df
                                   compound  experimental_endpoint    test_result
0  Cn1cc(-c2nccc(Oc3ccc(NC(=O)Nc4ccc(Cl)c(C(F)(F)F)c4)cc3)c2Cl)cn1               AUC(0-t)  56600 ng·h/mL
1  CNC(=O)c1cc(Oc2ccc(NC(=O)Nc3ccc(Cl)c(C(F)(F)F)c3)cc2)ccn1 [Comparative example 1, Sorafenib, reference compound]               AUC(0-t)  18900 ng·h/mL
2  Cn1cc(-c2nccc(Oc3ccc(NC(=O)Nc4ccc(Cl)c(C(F)(F)F)c4)cc3)c2F)cn1               AUC(0-t)  39600 ng·h/mL

----------
Entries below carry reported IC50 on VEGFR2 (Homo sapiens (Human)).
experimental.endpoint: IC50

>>> print(df.to_string())
                                   molecule  test_result
0  Cn1cc(-c2cc(Oc3ccc(NC(=O)Nc4ccc(Cl)c(C(F)(F)F)c4)cc3)c(F)cn2)cn1 [Comparative example 3, reference compound]       437 nM
1  COc1cc(Oc2ccc(NC(=O)Nc3ccc(Cl)c(C(F)(F)F)c3)cc2)cc(-c2cnn(C)c2)n1 [Comparative example 5, reference compound]      2390 nM
2  Cn1cc(-c2nccc(Oc3ccc(NC(=O)Nc4ccc(Cl)c(C(F)(F)F)c4)cc3)c2C#N)cn1      68.5 nM

----------
- Test system: HCT116 human colon cancer cell strain
- assay.comment: In vitro anti-proliferation of tumor cells (CCK-8), HCT-116
- Type: cell-based
- assay.conditions: HCT-116, 72 hours
pIC50: −log10 of the molar value.
Measured pIC50 of individual entries
experimental.endpoint: pIC50

In [3]: df
Out[3]:
                                   compound                           assay_target  test_result
0  CNC(=O)c1cc(Oc2ccc(NC(=O)Nc3ccc(Cl)c(C(F)(F)F)c3)cc2)ccn1 [Comparative example 1, Sorafenib, reference compound]  HCT116 human colon cancer cell strain         5.34
1  Cn1cc(-c2nccc(Oc3ccc(NC(=O)Nc4ccc(Cl)c(C(F)(F)F)c4)cc3)c2F)cn1  HCT116 human colon cancer cell strain         5.56
2  Cn1cc(-c2nccc(Oc3ccc(NC(=O)Nc4ccc(Cl)c(C(F)(F)F)c4)cc3)c2Cl)cn1  HCT116 human colon cancer cell strain         5.50
